Tested on: NCI-H522 lung
Assay: NCI tumour cell line growth inhibition, 48 h
Record form. Attribute: GI50. Fill in for each entry.

These solved cases illustrate the format of a correct answer.
>>> assay_result("COc1cccc(OC(=O)c2ccc(C(F)(F)F)nc2Nc2c(C)cccc2Cl)c1")
"16000 nM"
>>> assay_result("COc1ccc(C(C#N)=C2C=CC(=NO)C=C2)cc1")
"1230 nM"
>>> assay_result("O=C1NCN(c2ccccc2)C12CCN(CCCC(c1ccc(F)cc1)c1ccc(F)cc1)CC2")
"1510 nM"
>>> assay_result("Clc1ccccc1[C@@H]1C[C@@H]2Cc3cc(Br)c4ccccc4c3N1O2")
"2310 nM"

Each of the following entries comes with a recorded value; kindly state GI50 for each.
1. Nc1ncnc2c1c(-c1ccc(Oc3ccccc3)cc1)nn2C[C@H]1SSC[C@@H]1O
2. C=CCNc1nc(O)c(/C=C2\C=Nc3ncccc32)s1

1. 3850 nM
2. 725 nM

Each of the following entries comes with a recorded value; kindly state GI50 for each.
1. CCCCCCCCCCCC[N+](C)(C)Cc1ccccc1
2. Oc1[nH]c(N=C2N=c3ccccc3=N2)c2ccccc12
3. O=P(O)(O)OCC1OC(n2cnc3c(NCc4ccco4)ncnc32)C(O)C1O (configuration not stated)

1. 1530 nM
2. 11200 nM
3. 1140 nM

Each of the following entries comes with a recorded value; kindly state GI50 for each.
1. COc1cc2c3c(n(CCCCNC(=O)OC(C)(C)C)c(=O)c2cc1OC)-c1cc2c(cc1C3=O)OCO2
2. O=c1cc(-c2ccccc2)oc2ccc(OC/C(=N/O)c3ccc(F)cc3)cc12
3. COc1cc(OC)cc(-c2nc3sccn3c2/C=N/N=C(N)N)c1

1. > 100000 nM
2. 4680 nM
3. 15400 nM

====

Test system: A498 renal
Experiment: NCI tumour cell line growth inhibition, 48 h
outcome-measure: TGI (µM)
Numbers only, in µM.

These solved cases illustrate the format of a correct answer.
>>> assay_result("COc1cccc2c1C(=O)c1c(O)c3c(c(O)c1C2=O)C[C@@](O)(C(=O)CN1CCOCC1)C[C@@H]3OC1CC(N)C(O)C(C)O1 (stereo not given in full)")
31.1
>>> assay_result("O=C1NCN(c2ccccc2)C12CCN(CCCC(c1ccc(F)cc1)c1ccc(F)cc1)CC2")
4.94
>>> assay_result("COc1ccc(C(=O)c2c(-c3ccccc3NC(=O)C(F)(F)F)[nH]c3ccccc23)cc1")
4.7
>>> assay_result("Nc1nc(Nc2ccc(Cl)cc2)sc1C(=O)c1c[nH]c2ccccc12")
23.3
>>> assay_result("O=P(O)(O)OCC1OC(n2cnc3c(NCc4ccco4)ncnc32)C(O)C1O (stereo not given)")
11.7

Each of the following entries comes with a recorded value; kindly state TGI for each.
1. COC1=CC(=O)c2c(cc(COP(N)(=O)N(CCCl)CCCl)n2C)C1=O (stereo not given)
2. C=CCNc1nc(O)c(/C=C2\C=Nc3ncccc32)s1
3. CC(CN(C)C)S(=O)(=O)c1ccc(-c2cnc(N)c(C(=O)Nc3ccccc3)n2)cc1 (stereo not given)

1: 5.39; 2: 3.7; 3: 9.02

====

System: SF-539 CNS
Assay: NCI tumour cell line growth inhibition, 48 h; in the data active = GI50 below about 0.43 µM; inactive = the rest
Reply using exactly one outcome from 1 for active, -1 for inactive

Examples from the recorded data:
>>> discrete_label("C=C1C(=O)O[C@H]2[C@H]1CC/C(COC(=O)c1cn(C)c3ccccc13)=C\\CC[C@@]1(C)O[C@@H]21")
-1
>>> discrete_label("CCCCCCCN(CCCCCCC)C(=N)c1ccnc2ccccc12")
-1
>>> discrete_label("O=C1NCN(c2ccccc2)C12CCN(CCCC(c1ccc(F)cc1)c1ccc(F)cc1)CC2")
-1

Which outcome was entered for the molecule COc1ccc(OC)c(NC(=O)c2cccc(NC3=C(Cl)C(=O)N(Cc4ccccc4)C3=O)c2)c1 in this test?
-1

Which outcome was entered for the molecule CCC[CH2][Sn]([CH2]CCC)([CH2]CCC)[O]C(=O)C(OC(C)=O)c1ccccc1 (stereo unspecified) in this test?
1

Which outcome was entered for the molecule Cc1ccc(-c2c(C#N)[n+](=O)c3cc(F)c(F)cc3n2[O-])cc1 in this test?
-1

Which outcome was entered for the molecule COC1CC(C)C(OC)c2cc(O)cc(c2O)NC(=O)/C(C)=C/C=C\C(C)C(OC(N)=O)/C(C)=C\C(C)C1OC (stereo unspecified) in this test?
1

Which outcome was entered for the molecule Oc1[nH]c(N=C2N=c3ccccc3=N2)c2ccccc12 in this test?
-1

Which outcome was entered for the molecule c1cc(CN2CCCNCCNCCCNCC2)ccc1CN1CCCNCCNCCCNCC1 in this test?
-1

Which outcome was entered for the molecule Cc1cc(C(=O)Nc2cc(Oc3ccc4nc(NC(=O)C5CC5)cn4n3)ccc2C)n(C)n1 in this test?
-1

Which outcome was entered for the molecule COc1cccc(-n2ncc3c(N/N=C/c4ccc(C)cc4)ncnc32)c1 in this test?
-1
